# Tested on: Rattus norvegicus
# test protocol: In vivo Sterol lowering activity at dose as 0.10 % of the diet.
# Assay type: functional
Listing of recorded Diet by entry.
recorded endpoint: Diet (%)

- CCCC(Nc1ccc(C(=O)OCC)cc1)C(=O)OCC (centres undefined): 102
- CCOC(=O)CCCCCNc1ccc(C(=O)OCC)cc1: 84
- O=C(O)c1ccc(NCCC2CCCC2)cc1: 88
- O=C(O)CN(CC(=O)O)c1ccc(C(=O)O)cc1: 91
- O=C(O)CNc1ccc(C(=O)O)cc1: 98
- CCOC(=O)CNc1ccc(C(=O)OCC)cc1: 100
- O=C(O)CCCCCNc1ccc(C(=O)O)cc1: 105
- CCOC(=O)CCNc1ccc(C(=O)OCC)cc1: 94
- CCOC(=O)c1ccc(NCCC2CCCC2)cc1: 96
- CCOC(=O)CCCNc1ccc(C(=O)OCC)cc1: 93
- NC(=O)CNc1ccc(C(=O)O)cc1: 100
- O=C(O)CCCNc1ccc(C(=O)O)cc1: 99
- CCOC(=O)CN(CC(=O)OCC)c1ccc(C(=O)OCC)cc1: 100
- O=C(O)CCNc1ccc(C(=O)O)cc1: 100
